B1: TPR 5TU (parent)
chain: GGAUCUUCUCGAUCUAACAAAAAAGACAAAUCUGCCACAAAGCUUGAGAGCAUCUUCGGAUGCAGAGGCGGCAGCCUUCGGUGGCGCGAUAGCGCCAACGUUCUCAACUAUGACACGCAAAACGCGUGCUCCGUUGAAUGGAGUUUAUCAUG

Variants of: B1
RUN_DESCRIPTION: polymerase ribozyme fitness, log enrichment relative to wild type (log ratio); higher = more active; in vitro selection for triplet polymerase activity
Variants at the floor of the assay were thinned out.
Lab note: compare polymerase ribozyme fitness (log ratio) against -2. Equal or greater, write Criterion met. Smaller, write Criterion not met.

Here's what some known entries look like.
U55G C57G U101G	Criterion met
G94A C116U A122U G136A	Criterion met
A23G U31A G58C G70C C93G A107G	Criterion not met
A91C C108G A120U	Criterion not met
U102G C116G G133C	Criterion not met

(Q) hey, is polymerase ribozyme fitness (log ratio) for this one >= -2? A12C U61G C75G C96U C131U G140U G141A
(A) Criterion not met

(Q) Entry C51U C57A G83C A106G : is its polymerase ribozyme fitness (log ratio) no less than -2?
(A) Criterion met

(Q) Say whether C108G G136A A147C shows polymerase ribozyme fitness (log ratio) of -2 or more.
(A) Criterion not met
